Recorded values, source patent US9945845B2.

- Tested on: blood vessel development and/or lymphangiogenesis in Xenopus embryos
- Format: in vivo, Xenopus laevis
- condition_parameters: anterior lymph sac, Xenopus embryos
measured_quantity: ALS phenotype

>>> result("CC[C@H](C)C(=O)O[C@H]1CCC=C2C=C[C@H](C)[C@H](CC[C@@H]3C[C@@H](O)CC(=O)O3)[C@H]21")
"impaired"
>>> result("O=c1c(-c2ccc(O)cc2)coc2cc(O)cc(O)c12")
"impaired"

###

- Tested on: Xenopus embryos
- condition_parameters: embryonic phenotype in the primary screen
measured_quantity: Embr. phen.

Observe how each entry below is paired with its result.
>>> result("O=C1Nc2ccc(I)cc2C1=Cc1cc(Br)c(O)c(Br)c1")
"EDE"
>>> result("OCc1ccc(-c2nn(Cc3ccccc3)c3ccccc23)o1")
"EDE"
>>> result("Cc1ccc(Cl)c(Nc2ccccc2C(=O)[O-])c1Cl.[Na+] [Meclotenamic acid sodium]")
"EDE"
>>> result("CC(C)[C@H](CO)Nc1nc(Nc2cccc(Cl)c2)c2ncn(C(C)C)c2n1")
"LET"
>>> result("COc1cc2c(cc1O)CC[C@@H]1[C@@H]2CC[C@]2(C)[C@@H](O)CC[C@@H]12 [2-methoxyestradiol, 2-Hydroxyestradiol 2-methyl ether]")
"EDE"

Please examine the following record next.
Look up and report Embr. phen., with Xenopus embryos as system, for CCCCOC(=O)NS(=O)(=O)c1sc(CC(C)C)cc1-c1ccc(Cn2c(CC)nc3c(C)cc(C)nc32)cc1
LET

###

- System: Xenopus embryos
- condition_parameters: compounds causing edema; 20 μM, 1% DMSO, treatment from stage 31, scored to stage 47
Would you mind telling me the reported Lethality (NF) of each entry?
Express it in NF; write the number only.

Provide Lethality (NF), system Xenopus embryos, entry CC(C)COC(=O)OCN1C(=O)CN(CCN2CC(=O)N(COC(=O)OCC(C)C)C(=O)C2)CC1=O
47

Provide Lethality (NF), system Xenopus embryos, entry O=c1[nH]c2ccccc2c2ccccc12
47

Recall the reported Lethality (NF) of COc1cc(-c2ccc(=O)[nH]n2)ccc1OC(F)F when tested on Xenopus embryos.
43

Tell me its Lethality (NF) on Xenopus embryos: CC1=C(/C=C/C(C)=C/C=C/C(C)=C\C(=O)O)C(C)(C)CCC1 [13-cis-retinoic acid]
46

###

- Tested on: Xenopus embryos
- condition_parameters: compounds causing lethality; 20 μM, 1% DMSO, treatment from stage 31; Nieuwkoop & Faber stage
For each record, write down the corresponding Lethality (NF).

Give Lethality (NF) for CCCCCCCCCCCCCCCCCCOCC(COP(=O)([O-])OCC[N+](C)(C)C)OC (stereo not drawn)
37/38

Determine from records and report Lethality (NF) for CCOC(=O)C1=C(C)NC(C)=C(C(=O)OC)C1c1cccc([N+](=O)[O-])c1 (stereo not drawn)
45 NF

Read off the recorded Lethality (NF) for Oc1c2ccccc2c2c3c(cccc13)N=N2
41 NF

State, in one line, measured Lethality (NF) of O=C1C(SCCO)=C(SCCO)C(=O)c2ccccc21
40 NF

Note Lethality (NF) for the compound shown: CCCCCCCCCCCCCCCCCC(=O)OC(CC(=O)O)C[N+](C)(C)C.[Cl-] (racemic) [DL-Stearoylcarnitine chloride]
41 NF

Recall and state the measured Lethality (NF) for CC(C)c1ccc2c(c1)c(SC(C)(C)C)c(CC(C)(C)C(=O)[O-])n2Cc1ccc(Cl)cc1.[Na+] .
39 NF

For CCCCOC(=O)NS(=O)(=O)c1sc(CC(C)C)cc1-c1ccc(Cn2c(CC)nc3c(C)cc(C)nc32)cc1 , write its Lethality (NF).
45 NF

Look up and report measured Lethality (NF) for this entry: Clc1ccc(C(c2ccc(Cl)cc2)n2cc[n+](CC(OCc3ccc(Cl)cc3Cl)c3ccc(Cl)cc3Cl)c2)cc1 (stereo not drawn) [Calmidazolium chloride]
37/38

Complete the entry with Lethality (NF) for CCCCCCCC/C=C\CCCCCCCC(=O)NCCc1ccc(O)c(O)c1
41 NF
